// provenance: the DeepSol protein solubility set

- Experiment: soluble on expression in E. coli; label from the status in PepcDB or PDB records
Measure Name: soluble on expression in E. coli

INSERT INTO assay_data (seq_text, assay_value) VALUES
  ('MKLKNTLLASALLSAAAFSVHAATELTPEQAAALKPYDRIVITGRFNAIGDAVSAVSRRADKEGAASFYVVDTSEFGNSGNWRVVADVYKADAPKADAPKNRVINGIVELPKDQAVQLEPYDTVTVQGFYRSQPEVNDAITKAAKQKGAYAFYIVRQIDANQGGNQRITAFIYKQDAKKRIVQSPDAIPADSEAGRAALAQGGEAAKKVEIPGVATSASPSAEVGRFFETQSSKGGRYTVTLPDGTKVEELNKATAAMMVPFDSVKFTGNYGNMTEISYQVAKRAAKKGAKYYHITRQWQERGNNITISADLYKLEHHHHHH', 'soluble'),
  ('MSLKISLENVGCASQIGKRKENEDRFDFAQLTDEVLYFAVYDGHGGPAAADFCHTHMEKCIMDLLPKEKNLETLLTLAFLEIDKAFSSHARLSADATLLTSGTTATVALLRDGIELVVASVGDSRAILCRKGKPMKLTIDHTPERKDEKERIKKCGGFVAWNSLGQPHVNGRLAMTRSIGDLDLKTSGVIAEPETKRIKLHHADDSFLVLTTDGINFMVNSQEICDFVNQCHDPNEAAHAVTEQAIQYGTEDNSTAVVVPFGAWGKYKNSEINFSFSRSFASSGRWAEGHHHHHH', 'soluble');

====

- Experiment: soluble on expression in E. coli; label from the status in PepcDB or PDB records
Measure Name: soluble on expression in E. coli

INSERT INTO measurements (seq_text, measure_name, assay_value) VALUES
  ('IVGGYTCQENSVPYQVSLNSGYHFCGGSLINDQWVVSAAHCYKSRIQVRLGEHNINVLEGDEQFVNAAKIIKHPNFDRKTLNNNIMLIKLSSPVKLNARVATVALPSSCAPAGTQCLISGWGNTLSSGVNEPDLLQCLDAPLLPQADCEASYPGKITDNMVCVGFLEGGKDSCQGDSGGPVVCNGELQGIVSWGYGCALPDNPGVYTKVCNYVDWIQDTIAAN', 'soluble on expression in E. coli', 'soluble'),
  ('MQRCDWVSQDPLYIAYHDNEWGVPETDSRKLFEMICLEGQQAGLSWITVLKKRENYRACFHQFDPIRIAAMQEEDVERLLQNTGIIRHRGKIQAIISNARAWLAMEQNGESFADFVWSFVDGQPQITQAASLDKIPTSTPASDALAKALKKRGFKFVGTTICYSFMQACGLVNDHITGCFCHPG', 'soluble on expression in E. coli', 'soluble'),
  ('MICNCFLLIIVTLVISNCDGICLNHEGWGNVGSVFTDPLCNVWCEIKLCGPGQCIEDPMTTAPARCVCEKCYRDNSGNAVYPGGNNDYQQQAQMNRERQLDRQYNRQLRQQNRMNKAWQRGWQ', 'soluble on expression in E. coli', 'not soluble'),
  ('MMLENKSINELYSIKLIEEADTKRLIKFMNKYMNSKHEFEMSKRIFLSDQILNQECYNDINIRSSIYNFYEEYIVMEKEGKIAALIALDINRNNLSKVLNLNLIICEEGEMSRLRDMFIFATEILPEYSIVEPTKIRTYIRENGIFTEYWKNKLMEAGFSHEVTRENEVGNGVALTTMIIKMK', 'soluble on expression in E. coli', 'not soluble');

====

- Experiment: soluble on expression in E. coli; label from the status in PepcDB or PDB records
Measure Name: soluble on expression in E. coli

Consider the reported soluble on expression in E. coli for these sequences:
INSERT INTO measurements (seq_text, measure_name, assay_value) VALUES
  ('MILSSYNTIQSVFCCCCCCSVQKRQMRTQISLSTDEELPEKYTQHRRPWLSQLSNKKQSNTGRVQPSKRKPLPPLPPSEVAEEKIQVKALYDFLPREPCNLALRRAEEYLILEKYNPHWWKARDRLGNEGLIPSNYVTENKITNLEIYEWYHRNITRNQAEHLLRQESKEGAFIVRDSRHLGSYTISVFMGARRSTEAAIKHYQIKKNDSGQWYVAERHAFQSIPELIWYHQHNAAGLMTRLRYPVGLMGSCLPATAGFSYGKVCTHAEVK', 'soluble on expression in E. coli', 'soluble'),
  ('MTQVIIDGDACPVTNSIIELTKGTGIFVTVVRSFSHFSTVIQPEHVNIIYVDDGPDAVDYRIVKLVHSDDLVVTQDYGLASLLLNKAKIVMHHKGFIYNQENINTLLEQRHASAQFRKSGLEHHHHHH', 'soluble on expression in E. coli', 'not soluble'),
  ('MGSDKIHHHHHHMLLEIRHVTQYHYERPVRESLMELWMQPQKTARQRLVSFELDLNPAAQVFSYADSFGNAVYHFDVPQPHDNLTIIARSAVETESPGERPDQLDMGEWDRLRSEFVRGECFDFLRPHGFVRTTEALQTFINEHDLDALKRRDPLTAVRSLSETIYGAFEYQPGVTDADSPIDLTLSAGRGVCQDFAHIMLAVCRGWGVPARYVSGYLFTDRDAGDRSDPDATHAWVEVFLPSLRWVGFDPTNNMMAGERHVAVAVGRDYADVTPSRGVYKGDAESQLAVGVSVRRARAALAEPEFLRMARPSFAGGRRRHDTALREELHQQQQQQQ', 'soluble on expression in E. coli', 'not soluble'),
  ('ICMNVENEVTHTQLQFNHTDKYCGNIKNLISCKLYQHALTLIDSFRHDKSI', 'soluble on expression in E. coli', 'not soluble'),
  ('MSDVAIVKEGWLHKRGEYIKTWRPRYFLLKNDGTFIGYKERPQDVDQREAPLNNFSVAQCQLMKTERPRPNTFIIRCLQWTTVIERTFHVETPEEREEWTTAIQTVADGLKKQEEEEMDFRSG', 'soluble on expression in E. coli', 'soluble'),
  ('MGSDKIHHHHHHMQSYSLAELNKETTIGGIGKTVERDVPVIDLADFDNRKAEIADQLWEASVGIGFFQVYNHGIPQQDIDAAFETAWSFFELPADIKAQYPMPKGTNAGWEFKAQVRPSTGTPDNKESYQITRPMMGGLWPSEEELPDFKEKMLRFERQNWELGMRILSCFALKMGFAEDFFTKAHDPASSEYQSTQRLIHYMSMEHAKPEDFEFWRAGAHSDFDCLTILHQKEGEGGLQVCPGKDAASGEWTDVPPKNGYITCNIGDMLMRWSDDQLQSTLHRVRMPRPGEYLGRRLSLPFFCQANRDAVMQGPLGKYEAITAGDYLTQRINANFARK', 'soluble on expression in E. coli', 'not soluble'),
  ('MIIKIGTDRFWVKASNIERWAEILKSLPKKIPCSSKKDIARDYLGYKVDESGRIVNADEVYGLFGAEKDKDSLTIVGCNFIKEIEGGYELTEGAIELVERFKHNEEWEKVLGSQLLKYSIRIRTIAYAMLNGGYLYFEKGYMENFAKAYITLNDKKFYVFSSKPDEMNINSLMKENQSKILGDFWRKELDIGDGEEIEFRGVNKDYPSLGSMSTYLKIPMLLFDYLGWIVESEDGRYVLDKHKIKEDAGIDVYESLVNEADVDDIEILHKLIKEYSDARGFFPIGIVGSILKKKIDSENSMAEEQWIDHYFVTGINKGKFIIKDHEQGQPRHGRGLLGKKDYQLIKLEIRD', 'soluble on expression in E. coli', 'not soluble'),
  ('GPGSMRFRRVLAPLAASPHRWKTQRSPRGEETMGEGGAIEPDTSEAWVRNYVARAVREGRQTKESAEYFESIMNDQVEFRQYIQEARRLLNNQDPRTLTKYQRGHFAERLSRQMSGVAAERLMRAHAEESNARRHTQDGTPTGENYWFEAGNTLASPSVPGFVKDEVMREMREDRKKTSAAFEESEELQAMADKDEAFAEHLRRQRQHLFRSNDDVN', 'soluble on expression in E. coli', 'not soluble');

Entry MQQANLGDGVATARLLSRSDWGARLPKSVEHFQGPAPYVIIHHSYMPAVCYSTPDCMKSMRDMQDFHQLERGWNDIGYSFGIGGDGMIYTGRGFNVIGAHAPKYNDKSVGIVLIGDWRTELPPKQMLDAAKNLIAFGVFKGYIDPAYKLLGHRQVRDTECPGGRLFAEISSWPHFTHINDTEGVSSTTAPVVPHVHPQAAAPQKPHQSPPAAPKV , soluble on expression in E. coli reported as soluble

Entry MAEAESVSVDGWDFSWLDGRATEQRPSWGYQRLMGERLARANAALDIQTGGGEVLAGAMTMPPVMVATESWPPNVAKATALLHPLGAVVVADADEPPLPFAEGAFDLVTSRHPATVWWDEIARVLRPGGTYFSQHVGHASVFELVEYFLGPQPTRPASSSRPANAADSAHRLRPVEGLPDDVGVPGVLGGLPDDVEQDPARGPA , soluble on expression in E. coli reported as not soluble

Entry MGHHHHHHSHMANSMANSMNNRTRLALIICNTEFDHLPPRNGADFDITGMKELLEGLDYSVDVEENLTARDMESALRAFATRPEHKSSDSTFLVLMSHGILEGICGTVHDEKKPDVLLYDTIFQIFNNRNCLSLKDKPKVIIVQACRGANRGELWVRDSPASLEVASSQSSENLEEDAVYKTHVEKDFIAFCSSTPHNVSWRDSTMGSIFITQLITCFQKYSWCCHLEEVFRKVQQSFETPRAKAQMPTIERLSMTRYFYLFPGN , soluble on expression in E. coli reported as not soluble

Entry MSLNDGRLEIFQEGKPGRRIDEDQVFAAVLDALTKPAEQRTVTVAFREIPPPITAANLDQLGITTLIGVGRSDFTGSAAYRVTNIQAGMRLLHGVLIAPGEEFSFNQTIGRIDRSNGFVEGYAIIQNRTQLEWGGGICQDSTTMFRAAFWAGLPITERWGHSFYISWYDRYAFGPYGDGPGMDATIFTGGPDLKFLNDTGGWLLIQTLVDTHRHLAEVRLYGPDTGRKVLLEGPIITNRTEGHHHHHH , soluble on expression in E. coli reported as not soluble
